From: the supplement of paper PMC11061612

- System: OVKATE (Ovarian Carcinoma);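 also: after 72 h of two-drug dosing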
- Protocol Text: Bliss excess, mean over the matrix (fraction); higher = more synergy
Please mark yes if the recorded Bliss excess is equal to or greater than -0.06, and no if it falls below.

These solved cases illustrate the format of a correct answer.
q: Entry Cc1c2c(nn1C)CSCc1cc(n(C)n1)CSc1cc(c3ccccc3c1)OCCCc1c(C(=O)O)n(C)c3c-2c(Cl)ccc13 [AZD5991] + CCN(CCO)CCCOc1ccc2c(Nc3cc(CC(=O)Nc4cccc(F)c4)[nH]n3)ncnc2c1 [AZD2811] (first compound max 1 µM, 7x7, partner max 1 µM) : is its Bliss excess no less than -0.06?
a: no

q: Entry O=C(c1cc(Cc2n[nH]c(=O)c3ccccc23)ccc1F)N1CCN(C(=O)C2CC2)CC1 [Olaparib] + COc1nnc2ccc(N3CCC(c4ccc(OCCN5CCN(C)C(=O)[C@H]5C)cc4)CC3)nn12 [AZD5153] (first compound max 10 µM, 7x7, partner max 1 µM) : is its Bliss excess no less than -0.06?
a: no

q: Entry COc1nnc2ccc(N3CCC(c4ccc(OCCN5CCN(C)C(=O)[C@H]5C)cc4)CC3)nn12 [AZD5153] + Cn1cnc2c(F)c(Nc3ccc(Br)cc3Cl)c(C(=O)NOCCO)cc21 [Selumetinib] (first compound max 1 µM, 7x7, partner max 10 µM) : is its Bliss excess no less than -0.06?
a: yes

q: Entry C[C@@H](Oc1cc(-c2cnn(C3CCNCC3)c2)cnc1N)c1c(Cl)ccc(F)c1Cl [Crizotinib] + CC1=C(C(=CC=C1)Cl)NC(=O)C2=CN=C(S2)NC3=CC(=NC(=N3)C)N4CCN(CC4)CCO [Dasatinib] (first compound max 10 µM, 7x7, partner max 2 µM) : is its Bliss excess no less than -0.06?
a: yes

q: Entry COc1cccc(OCCCN)c1-c1cc(Nc2cnc(C#N)cn2)n[nH]1 [Prexasertib] + O=C(c1cc(Cc2n[nH]c(=O)c3ccccc23)ccc1F)N1CCN(C(=O)C2CC2)CC1 [Olaparib] (first compound max 1 µM, 7x7, partner max 10 µM) : is its Bliss excess no less than -0.06?
a: no

***
q: Entry COc1nnc2ccc(N3CCC(c4ccc(OCCN5CCN(C)C(=O)[C@H]5C)cc4)CC3)nn12 [AZD5153] + Cc1c2c(nn1C)CSCc1cc(n(C)n1)CSc1cc(c3ccccc3c1)OCCCc1c(C(=O)O)n(C)c3c-2c(Cl)ccc13 [AZD5991] (first compound max 1 µM, 7x7, partner max 1 µM) : is its Bliss excess no less than -0.06?
a: yes

q: Entry COc1cccc(OCCCN)c1-c1cc(Nc2cnc(C#N)cn2)n[nH]1 [Prexasertib] + Cc1cc2ncnn2cc1Nc1ncc2c(n1)n(C1CCOCC1)c(=O)n2C [AZD7648] (first compound max 1 µM, 7x7, partner max 10 µM) : is its Bliss excess no less than -0.06?
a: no

----------
- Tested on: RVH-421 (Melanoma)
- Protocol Text: combination Emax (second highest fraction inhibited in the dose matrix, 72 h); higher = more inhibition; extreme values may be limits of the assay
What combination Emax was measured for each of the following?
Answers are plain numbers.

Known results for compounds:
q: State measured combination Emax of the compound CN(C)CCCOc1ccc(-c2ccc3ncc4c(c3c2)n(C2CCOCC2)c(=O)n4C)cn1 [AZD0156] + CCN(CCO)CCCOc1ccc2c(Nc3cc(CC(=O)Nc4cccc(F)c4)[nH]n3)ncnc2c1 [AZD2811] (first compound max 1 µM, 7x7, partner max 1 µM) with RVH-421 (Melanoma).
a: 0.0787

q: State measured combination Emax of the compound Cc1cc2ncnn2cc1Nc1ncc2c(n1)n(C1CCOCC1)c(=O)n2C [AZD7648] + CCN(CCO)CCCOc1ccc2c(Nc3cc(CC(=O)Nc4cccc(F)c4)[nH]n3)ncnc2c1 [AZD2811] (first compound max 10 µM, 7x7, partner max 1 µM) with RVH-421 (Melanoma).
a: 0.299

q: State measured combination Emax of the compound Cc1cc2ncnn2cc1Nc1ncc2c(n1)n(C1CCOCC1)c(=O)n2C [AZD7648] + CN(C)CCCOc1ccc(-c2ccc3ncc4c(c3c2)n(C2CCOCC2)c(=O)n4C)cn1 [AZD0156] (first compound max 10 µM, 7x7, partner max 1 µM) with RVH-421 (Melanoma).
a: 0.274

Next up:
q: State measured combination Emax of the compound Cc1c2c(nn1C)CSCc1cc(n(C)n1)CSc1cc(c3ccccc3c1)OCCCc1c(C(=O)O)n(C)c3c-2c(Cl)ccc13 [AZD5991] + CC1(C)CCC(CN2CCN(c3ccc(C(=O)NS(=O)(=O)c4ccc(NCC5CCOCC5)c([N+](=O)[O-])c4)c(Oc4cnc5[nH]ccc5c4)c3)CC2)=C(c2ccc(Cl)cc2)C1 [Venetoclax] (first compound max 1 µM, 7x7, partner max 1 µM) with RVH-421 (Melanoma).
a: 0.358
